experiment: Apparent permeability in human Caco2 cells at 10 uM after 45 to 120 mins by LC/MS/MS analysis; assay type: ADME, cell-based; details: Caco-2
Metric name: Papp at 10 µM (×10⁻⁶ cm/s)

Take a look at these entries with their results.
Molecule	Endpoint value
CNC(=O)C[C@H]1COc2ccccc2N1C(=O)c1ccc2c(c1)NC(=O)CO2	6.8
NS(=O)(=O)C[C@H]1COc2cc(F)ccc2N1C(=O)c1ccc2c(c1)NC(=O)CO2	2.6
CNC(=O)C[C@H]1COc2cc(C#N)ccc2N1C(=O)c1ccc2c(c1)NC(=O)CO2	1.5
CNC(=O)C[C@@H]1COc2cc(F)ccc2N1C(=O)c1ccc2c(c1)NC(=O)CO2	6.2
CNC(=O)C[C@H]1CCc2cc(F)ccc2N1C(=O)c1ccc2c(c1)NC(=O)CO2	6.3

I = NC(=O)C[C@H]1COc2cc(F)ccc2N1C(=O)c1ccc2c(c1)NC(=O)CO2
II = CCNC(=O)CC1COc2cc(F)ccc2N1C(=O)c1ccc2c(c1)NC(=O)CO2 (racemic)
For this pair, I and II , which shows a numerically higher Papp at 10 µM? Write down the label of the entry you select.
II

a = CNC(=O)C[C@H]1COc2cc(Cl)ccc2N1C(=O)c1ccc2c(c1)NC(=O)CO2
b = NC(=O)C[C@H]1COc2cc(F)cc(F)c2N1C(=O)c1ccc2c(c1)NC(=O)CO2
Dear colleague, could you let me know whether a or b has the lower recorded Papp at 10 µM? Thanks. Write down the label of the entry you select.
b
(b: 4.2 ×10⁻⁶ cm/s, a: 21 ×10⁻⁶ cm/s)

I = CNC(=O)C[C@H]1COc2cc(C(F)(F)F)ccc2N1C(=O)c1ccc2c(c1)NC(=O)CO2
II = CS(=O)(=O)C[C@H]1COc2cc(F)ccc2N1C(=O)c1ccc2c(c1)NC(=O)CO2
Dear colleague, could you let me know whether I or II has the lower recorded Papp at 10 µM? Thanks. Write down the label of the entry you select.
II

// provenance: ChEMBL document CHEMBL4422622
